- Species on record: Rattus norvegicus
- Test method notes: Compound was evaluated for inhibition of [3H]- dopamine uptake in rat caudate - putamen tissue.
- Type: functional
Please respond with reported pIC50 for every item in the list.
Entry type: numeric. Quantity: pIC50, the -log10 of concentration in molar units.

# input // lookup pIC50 for CN1C2CCC1C(/C=C/CO)C(c1ccccc1)C2 (stereo not drawn)
# output 6.80

# input // lookup pIC50 for COC(=O)CCC1C(c2ccccc2)CC2CCC1N2C (stereo not drawn)
# output 6.78

# input // lookup pIC50 for COC(=O)/C=C/C1C(c2ccccc2)CC2CCC1N2C (stereo not drawn)
# output 6.91

---

- Species: Rattus norvegicus
- Test method notes: Compound was evaluated for inhibition of [3H]- dopamine Uptake in rat caudate - putamen tissue.
- Format: functional
Parameter: IC50 (nM)
Write the value in nM as a bare number.

# input // lookup IC50 for COC(=O)[C@@H]1C2CC[C@H](C[C@@H]1c1ccccc1)N2C (single isomer, unassigned)
# output 373

# input // lookup IC50 for CN1C2CCC1C(CCCc1ccccc1)C(c1ccccc1)C2 (stereo unspecified)
# output 43

# input // lookup IC50 for CN1C2CCC1C(CCCO)C(c1ccccc1)C2 (stereo unspecified)
# output 64

# input // lookup IC50 for COC(=O)/C=C/CCC1C(c2ccccc2)CC2CCC1N2C (stereo unspecified)
# output 203

# input // lookup IC50 for CN1C2CCC1C(CCC(=O)c1ccccc1)C(c1ccccc1)C2 (stereo unspecified)
# output 47

# input // lookup IC50 for COC(=O)CCCCC1C(c2ccccc2)CC2CCC1N2C (stereo unspecified)
# output 130

---

- Species: Mus musculus
- Test method notes: Stimulation of locomotor activity of mice
- Type: functional
Parameter: Max effect (Counts 10min-1)
Write the value in Counts 10min-1 as a bare number.

# input // lookup Max effect for COC(=O)/C=C/CCC1C(c2ccccc2)CC2CCC1N2C (centres undefined)
# output 17327

# input // lookup Max effect for COC(=O)[C@H]1[C@@H](OC(=O)c2ccccc2)C[C@@H]2CC[C@H]1N2C
# output 12518

# input // lookup Max effect for COC(=O)/C=C/C1C(c2ccccc2)CC2CCC1N2C (centres undefined)
# output 14996

# input // lookup Max effect for CN1C2CCC1C(CCCO)C(c1ccccc1)C2 (centres undefined)
# output 20820
